Test system: PC-12
Assay: Neuroprotective activity against rat PC12 cells assessed as reduction in amyloid beta (25 to 35)-induced cytotoxicity at 15 uM incubated for 4 hrs followed by amyloid beta (25 to 35) treatment for 24 hrs by MTT assay relative to control
Format: functional
Set-up: scale not given: the % may be the effect or the level left
Settings: time 28 hrs

compound.structure.string	Activity (%)
CC1(C)CCC[C@](C)([C@H]2CC[C@]3(C)[C@@H]2[C@H](O)C[C@@H]2[C@@]4(C)CC[C@H](OC(=O)NCc5ccccc5)C(C)(C)[C@@H]4CC[C@]23C)O1	73.01
CC1(C)CCC[C@](C)([C@H]2CC[C@]3(C)[C@@H]2[C@H](O)C[C@@H]2[C@@]4(C)CC[C@H](OC(=O)c5cn(-c6ccc([N+](=O)[O-])cc6)nn5)C(C)(C)[C@@H]4CC[C@]23C)O1	23.76
C=CCNC(=O)O[C@H]1CC[C@]2(C)[C@H]3C[C@@H](O)[C@@H]4[C@@H]([C@@]5(C)CCCC(C)(C)O5)CC[C@@]4(C)[C@]3(C)CC[C@H]2C1(C)C	70.06
CC1(C)CCC[C@](C)([C@H]2CC[C@]3(C)[C@@H]2[C@H](O)C[C@@H]2[C@@]4(C)CC[C@H](OC(=O)CN5CCN(Cc6ccccc6)CC5)C(C)(C)[C@@H]4CC[C@]23C)O1.Cl	37.37
CC1(C)CCC[C@](C)([C@H]2CC[C@]3(C)[C@@H]2[C@H](O)C[C@@H]2[C@@]4(C)CC[C@H](OC(=O)Nc5ccc(Cl)cc5)C(C)(C)[C@@H]4CC[C@]23C)O1	64.16
CC1(C)CCC[C@](C)([C@H]2CC[C@]3(C)[C@@H]2[C@H](O)C[C@@H]2[C@@]4(C)CC[C@H](OC(=O)Nc5ccccc5)C(C)(C)[C@@H]4CC[C@]23C)O1	71.32
CC(C)NC(=O)O[C@H]1CC[C@]2(C)[C@H]3C[C@@H](O)[C@@H]4[C@@H]([C@@]5(C)CCCC(C)(C)O5)CC[C@@]4(C)[C@]3(C)CC[C@H]2C1(C)C	69.45
COC(=O)[C@@H](Cc1ccccc1)NC(=O)CCC(=O)O[C@H]1CC[C@]2(C)[C@H]3C[C@@H](O)[C@@H]4[C@@H]([C@@]5(C)CCCC(C)(C)O5)CC[C@@]4(C)[C@]3(C)CC[C@H]2C1(C)C	33.77
CC1(C)CCC[C@](C)([C@H]2CC[C@]3(C)[C@@H]2[C@H](O)C[C@@H]2[C@@]4(C)CC[C@H](OC(=O)/C=C/c5ccccc5)C(C)(C)[C@@H]4CC[C@]23C)O1	22.78
CC1(C)CCC[C@](C)([C@H]2CC[C@]3(C)[C@@H]2[C@H](O)C[C@@H]2[C@@]4(C)CC[C@H](OC(=O)c5cn(-c6ccccc6)nn5)C(C)(C)[C@@H]4CC[C@]23C)O1	25.49

###

Test: Oral bioavailability in Sprague-Dawley rat at 60 mg/kg measured after 0.25 to 24 hrs post administration by LC-MS/MS analysis
Assay type: ADME, organism-based
Settings: in vivo, time 0.25-24 hrs

compound.structure.string	bioavailability (%)
CC1(C)CCC[C@](C)([C@H]2CC[C@]3(C)[C@@H]2[C@H](O)C[C@@H]2[C@@]4(C)CC[C@H](OC(=O)NCc5ccccc5)C(C)(C)[C@@H]4CC[C@]23C)O1	0.2

###

Reported Activity values follow for various compounds
Tested on: PC-12
Assay: Neuroprotective activity against rat PC12 cells assessed as reduction in amyloid beta (25 to 35)-induced cytotoxicity at 15 uM incubated for 4 hrs followed by amyloid beta (25 to 35) treatment for 24 hrs by MTT assay relative to control
Type: functional
Set-up: scale not given: the % may be the effect or the level left
Details: time 28 hrs

compound.structure.string	measured.target	Activity [%]
Cc1ccc(NC(=O)O[C@H]2CC[C@]3(C)[C@H]4C[C@@H](O)[C@@H]5[C@@H]([C@@]6(C)CCCC(C)(C)O6)CC[C@@]5(C)[C@]4(C)CC[C@H]3C2(C)C)cc1	PC-12	64.13
COc1ccc(OP(=O)(Oc2ccc(OC)cc2)O[C@H]2CC[C@]3(C)[C@H]4C[C@@H](O)[C@@H]5[C@@H]([C@@]6(C)CCCC(C)(C)O6)CC[C@@]5(C)[C@]4(C)CC[C@H]3C2(C)C)cc1	PC-12	57.15
COC(=O)[C@H](NC(=O)CCC(=O)O[C@H]1CC[C@]2(C)[C@H]3C[C@@H](O)[C@@H]4[C@@H]([C@@]5(C)CCCC(C)(C)O5)CC[C@@]4(C)[C@]3(C)CC[C@H]2C1(C)C)c1ccccc1	PC-12	22.85

###

Experiment: Clearance in Sprague-Dawley rat at 10 mg/kg,iv measured at 0.083 to 24 hrs post administration by LC-MS/MS analysis
Assay type: ADME, organism-based
Details: in vivo, time 0.083-24 hrs

compound.structure.string	clearance [mL/min/kg]
CC1(C)CCC[C@](C)([C@H]2CC[C@]3(C)[C@@H]2[C@H](O)C[C@@H]2[C@@]4(C)CC[C@H](OC(=O)NCc5ccccc5)C(C)(C)[C@@H]4CC[C@]23C)O1	4.29

###

Reported Activity values follow for various molecules
Tested on: PC-12
Assay: Neuroprotective activity against rat PC12 cells assessed as reduction in amyloid beta (25 to 35)-induced cytotoxicity at 15 uM incubated for 4 hrs followed by amyloid beta (25 to 35) treatment for 24 hrs by MTT assay relative to control
Type: functional
Set-up: scale not given: the % may be the effect or the level left
Conditions: time 28 hrs
value.kind: Activity (%)

compound.structure.string	measurement.units	endpoint.value
COc1ccc(NC(=O)O[C@H]2CC[C@]3(C)[C@H]4C[C@@H](O)[C@@H]5[C@@H]([C@@]6(C)CCCC(C)(C)O6)CC[C@@]5(C)[C@]4(C)CC[C@H]3C2(C)C)cc1	%	65.27
CCCCCCNC(=O)O[C@H]1CC[C@]2(C)[C@H]3C[C@@H](O)[C@@H]4[C@@H]([C@@]5(C)CCCC(C)(C)O5)CC[C@@]4(C)[C@]3(C)CC[C@H]2C1(C)C	%	50.09
CC1(C)CCC[C@](C)([C@H]2CC[C@]3(C)[C@@H]2[C@H](O)C[C@@H]2[C@@]4(C)CC[C@H](OC(=O)c5cn(-c6ccc(F)cc6)nn5)C(C)(C)[C@@H]4CC[C@]23C)O1	%	33.68
CC1(C)CCC[C@](C)([C@H]2CC[C@]3(C)[C@@H]2[C@H](O)C[C@@H]2[C@@]4(C)CC[C@H](OC(=O)CN5CCCCC5)C(C)(C)[C@@H]4CC[C@]23C)O1.Cl	%	12.66

Values from ChEMBL document CHEMBL5247626
